Cited source: the Deep4Chem optical property database

Listed below: emission maximum values for each entry.
# measurement-description: solvent given as SMILES
# conditions-used: in C1CCCCC1
value-type: emission maximum (nm)

INSERT INTO assay_data (compound, quantitative_result) VALUES
  ('FC(F)(F)c1cc2n(n1)[B-](c1ccccc1)(c1ccccc1)[n+]1ccc3ccccc3c1-2', 410),
  ('O=S1c2ccc(-c3c4ccccc4cc4ccccc34)cc2-c2cc(-c3c4ccccc4cc4ccccc34)ccc21', 405.03),
  ('COc1ccc(/C=C/c2nc3ccccc3s2)cc1', 400),
  ('CC(C)(C)c1ccc2c(c1)Cc1cc(C(C)(C)C)ccc1-2', 348),
  ('CCC1=C(C)C2=C(C)c3cccn3[B-](F)(F)[N+]2=C1C', 515),
  ('COc1c2ccccc2c(OC)c2c1c1cc(Cl)ccc1n2C', 421),
  ('F[B-]1(F)n2c(nc(Br)c2Br)-c2cccc[n+]21', 463),
  ('CN(C)c1ccc2c(c1)-c1ccccc1C2=O', 491);
